Target: 5HT2B receptors (Homo sapiens, UniProt P41595)
Construct: expressed in transfected cells; host or cells: CHO-K1 cells
Sequence (P41595 whole entry): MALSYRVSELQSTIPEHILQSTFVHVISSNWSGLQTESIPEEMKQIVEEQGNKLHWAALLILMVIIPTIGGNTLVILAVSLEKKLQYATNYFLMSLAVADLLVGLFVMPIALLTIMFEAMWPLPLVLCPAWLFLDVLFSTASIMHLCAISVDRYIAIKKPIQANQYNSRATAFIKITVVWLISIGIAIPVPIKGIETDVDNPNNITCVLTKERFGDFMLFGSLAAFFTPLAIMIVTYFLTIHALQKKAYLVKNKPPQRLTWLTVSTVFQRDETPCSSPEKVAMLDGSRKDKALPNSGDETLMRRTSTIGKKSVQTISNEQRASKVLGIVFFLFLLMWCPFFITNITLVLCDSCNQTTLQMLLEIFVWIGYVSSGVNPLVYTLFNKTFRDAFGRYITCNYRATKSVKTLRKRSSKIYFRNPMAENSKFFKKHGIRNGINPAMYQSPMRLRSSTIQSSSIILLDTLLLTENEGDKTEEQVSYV
Experiment: Human 5-HT2B functional high throughput screening assay in CHO-K1 cells (calcium flux)
Assay type: cell-based
Conditions: EC50, 5-HT2B agonist activity; CHO-K1 cells; calcium flux
pEC50: −log10 of the molar value.
Entries and their pEC50
assay metric: pEC50

* COc1ccc2c(c1)C(=O)N(C)C[C@@H]1CNC[C@@H]21 (relative stereo) | 6.00
* CN1C[C@@H]2CCOc3ccccc3[C@H]2C1 | 7.00
* O=S(=O)(c1ccccc1)N1Cc2cccnc2[C@@H]2CNC[C@H]2C1 (relative stereo) | 6.10
* CN1C[C@H]2CNC(=O)c3ccccc3[C@@H]2C1 (relative stereo) | 6.30
* Cc1cccc2c1OCC[C@H]1CNC[C@H]21 (relative stereo) | 8.00
* Fc1cccc2c1[C@H]1CNC[C@@H]1CCO2 (relative stereo) | 6.52
* Brc1cccc2c1OCC[C@H]1CNC[C@@H]21 (relative stereo) | 7.52
* FC(F)(F)Oc1cccc2c1OCC[C@H]1CNC[C@H]21 (relative stereo) | 8.05
* c1ccc2c(c1)OCC[C@@H]1CNC[C@@H]21 | 5.30
* Clc1cccc2c1OCC[C@H]1CNC[C@H]21 (relative stereo) | 6.70
* Cc1ccc2c(c1)OCC[C@H]1CNC[C@H]21 (relative stereo) | 7.30
* Cc1cc2c(cc1F)C(=O)NC[C@@H]1CNC[C@H]21 (relative stereo) | 6.05
* O=C1NC[C@@H]2CNC[C@H]2c2ccc(OCc3cccc(F)c3)cc21 (relative stereo) | 6.00
* O=C1NC[C@H]2CNC[C@@H]2c2c(F)cc(F)cc21 | 7.00
* CN1C[C@@H]2CCCc3ccccc3[C@@H]2C1 (relative stereo) | 6.10
* Oc1cccc2c1[C@H]1CNC[C@@H]1CCO2 (relative stereo) | 6.15
* Cc1ccc(S(=O)(=O)N2Cc3cccnc3[C@@H]3CNC[C@H]3C2)cc1 (relative stereo) | 6.00
* CN1C[C@H]2CNC(=O)c3c(OC(F)(F)F)cccc3[C@@H]2C1 (relative stereo) [Example 110] | 6.05
* c1ccc2c(c1)OCC[C@H]1CNC[C@@H]21 (relative stereo) | 6.00
* Clc1cccc2c1OCC[C@H]1CNC[C@@H]21 (relative stereo) | 7.22
* COc1ccc2c(c1)OCC[C@H]1CNC[C@H]21 (relative stereo) | 7.00
* Brc1cccc2c1OCC[C@H]1CNC[C@H]21 (relative stereo) | 8.22

====

Target: UniProt P28335
Sequence (P28335 33-458): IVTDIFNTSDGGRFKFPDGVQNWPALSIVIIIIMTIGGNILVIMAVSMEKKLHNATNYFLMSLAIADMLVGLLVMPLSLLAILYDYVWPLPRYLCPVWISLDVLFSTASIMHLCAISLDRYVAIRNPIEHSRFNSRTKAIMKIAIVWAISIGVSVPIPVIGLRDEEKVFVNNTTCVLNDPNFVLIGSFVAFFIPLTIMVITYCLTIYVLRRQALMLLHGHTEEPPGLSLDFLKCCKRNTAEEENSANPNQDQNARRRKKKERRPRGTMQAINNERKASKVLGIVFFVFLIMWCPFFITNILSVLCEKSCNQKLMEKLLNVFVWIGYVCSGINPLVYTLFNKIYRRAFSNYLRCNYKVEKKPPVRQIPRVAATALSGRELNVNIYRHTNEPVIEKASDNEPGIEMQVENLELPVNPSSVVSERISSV
Assay: Human 5-HT2C functional high throughput screening assay in CHO-K1 cells (calcium flux)
Type: cell-based
Design: expressed in transfected cells; host or cells: CHO-K1 cells
Settings: 5-HT2C agonist activity; CHO-K1 cells; calcium flux; read-out: EC50
assay metric: log10 of EC50 (log10 of the value in nM)

* CNC(=O)c1cccc(-c2ccc3c(c2)C(=O)NC[C@@H]2CNC[C@@H]32)c1 (relative stereo) [Example 381] | 1.00
* CN1C[C@H]2CN(C)C(=O)c3cc(-c4cccc(C(C)(C)O)c4)ccc3[C@@H]2C1 (relative stereo) [Example 194] | 1.30
* O=C1NC[C@@H]2CN(Cc3ccccc3)C[C@H]2c2cccnc21 (relative stereo) [Example 154] | 3.30
* CN1C[C@@H]2CNC(=O)c3cc(-c4ccc5c(c4)C(O)CC5)ccc3[C@H]2C1 (some centres unmarked) [Example 310] | -0.15
* CC(C)COc1ccc2c(c1)C(=O)NC[C@@H]1CN(CCF)C[C@@H]21 (relative stereo) [Example 380] | 2.48
* CC(=O)c1cccc(-c2ccc3c(c2)C(=O)NC[C@@H]2CNC[C@@H]32)c1.Cl (relative stereo) [Example 236, hydrochloride] | -0.52
* COC(=O)c1ccc2c(c1)C(=O)NC[C@@H]1CN(Cc3ccccc3)C[C@@H]21 (relative stereo) [Example 129] | 2.30
* CN1C[C@H]2CNC(=O)c3cc(-c4ccc5c(c4)CCO5)ccc3[C@@H]2C1 (relative stereo) [Example 321] | 0.48
* C[C@H](Cc1ccccc1)Oc1ccc2c(c1)C(=O)NC[C@@H]1CN(Cc3ccccc3)C[C@@H]21 (mixture of isomers) [Example 118] | 2.48
* COc1cccc(S(=O)(=O)N2Cc3cccnc3[C@@H]3CNC[C@H]3C2)c1 (relative stereo) [Example 336] | 1.95
* O=S1(=O)NC[C@@H]2CNC[C@H]2c2ccccc21 (relative stereo) [Example 111] | 3.78
* CCS(=O)(=O)c1cccc(-c2ccc3c(c2)C(=O)NC[C@@H]2CNC[C@@H]32)c1 (relative stereo) [Example 250] | 0.48
* O=C1NC[C@@H]2CN(Cc3ccccc3)C[C@H]2c2c(F)cccc21 (relative stereo) [Example 65] | 1.30
* COc1ccc(-c2ccc3c(c2)C(=O)NC[C@H]2CN(C)C[C@H]32)c(F)c1 [Example 325] | 0.30
* CC(O)c1cccc(-c2ccc3c(c2)C(=O)N(C)C[C@@H]2CN(C)C[C@@H]32)c1 (relative stereo) [Example 193] | 1.30
* CN1C[C@H]2CNC(=O)c3cc(-c4ccc(C(F)(F)F)cc4)ccc3[C@@H]2C1 (relative stereo) [Example 79] | 1.48
* CN1C[C@H]2CNC(=O)c3cc(OCc4ccccc4F)ccc3[C@@H]2C1 (relative stereo) [Example 164] | 2.85
* COc1cc(OC)c2c(c1)C(=O)NC[C@@H]1CN(Cc3ccccc3)C[C@@H]21 (relative stereo) [Example 98] | 1.00
* O=C1NC[C@@H]2CNC[C@H]2c2ccc(OCc3c(F)cccc3F)cc21 (relative stereo) [Example 168] | 0.00
* CN1C[C@@H]2CNC(=O)c3cc(-c4ccccn4)ccc3[C@H]2C1 [Example 388] | 2.48
* O=C1NC[C@@H]2CN(Cc3ccccc3)C[C@H]2c2ccc(OCCc3ccccc3)cc21 (relative stereo) [Example 121] | 2.30
* O=C1NC[C@@H]2CN(Cc3ccccc3)C[C@H]2c2ccccc21 (racemic) [Example 1] | 1.30
* COc1cccc(CCOc2ccc3c(c2)C(=O)NC[C@@H]2CNC[C@@H]32)c1 (relative stereo) [Example 174] | 1.48
* Fc1ccc(-c2cccc3c2NCC[C@@H]2CNC[C@@H]32)cc1 (relative stereo) [Example 401] | 2.90
* c1ccc(-c2ccc3c(c2)OCC[C@H]2CNC[C@H]32)cc1 (relative stereo) [Example 108] | 2.30
* Cc1ccc(-c2ccc3c(c2)C(=O)NC[C@@H]2CN(C)C[C@@H]32)cc1 (relative stereo) [Example 82] | 0.62
* CN1C[C@H]2CN(C)C(=O)c3cc(-c4cccc(CCO)c4)ccc3[C@@H]2C1 (relative stereo) [Example 192] | 0.90
* COc1cc(-c2ccc3c(c2)C(=O)NC[C@@H]2CN(C)C[C@@H]32)ccc1F (relative stereo) [Example 320] | 0.85
* Cc1cccc(-c2ccc3c(c2)C(=O)NC[C@@H]2CN(C)C[C@@H]32)c1 (relative stereo) [Example 81] | 0.23
